# maps each entry to its fraction ligated
B1: F1*; the commonest letter at each place (parent)
chain: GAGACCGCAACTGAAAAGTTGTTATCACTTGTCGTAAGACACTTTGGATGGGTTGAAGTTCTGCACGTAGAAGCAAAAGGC

- Variants of: B1
- ASSAY INFO: fraction ligated after 30 min (ligated reads / total reads); higher = more ligase activity
- REPORTED CONDITIONS: with F1*sub RNA substrate (template-directed ligation), 42 °C
Give the value as a plain number.

Ask | Can you look up the measured fraction ligated of T32C A37G for me?
Reply | 0.815

Ask | Can you look up the measured fraction ligated of C40A C42A for me?
Reply | 0.821

Ask | Can you look up the measured fraction ligated of T43C G55T for me?
Reply | 0.817

Ask | Can you look up the measured fraction ligated of T25A T49C for me?
Reply | 0.612

This collection of values is drawn from the supplement of paper PMC6755084.
